Cited source for all entries: PubChem BioAssay

# study.system: Calcium-dependent protein kinase 1 (Plasmodium falciparum (isolate 3D7)) (UniProt P62344)
# Sequence (P62344 whole entry, looked up): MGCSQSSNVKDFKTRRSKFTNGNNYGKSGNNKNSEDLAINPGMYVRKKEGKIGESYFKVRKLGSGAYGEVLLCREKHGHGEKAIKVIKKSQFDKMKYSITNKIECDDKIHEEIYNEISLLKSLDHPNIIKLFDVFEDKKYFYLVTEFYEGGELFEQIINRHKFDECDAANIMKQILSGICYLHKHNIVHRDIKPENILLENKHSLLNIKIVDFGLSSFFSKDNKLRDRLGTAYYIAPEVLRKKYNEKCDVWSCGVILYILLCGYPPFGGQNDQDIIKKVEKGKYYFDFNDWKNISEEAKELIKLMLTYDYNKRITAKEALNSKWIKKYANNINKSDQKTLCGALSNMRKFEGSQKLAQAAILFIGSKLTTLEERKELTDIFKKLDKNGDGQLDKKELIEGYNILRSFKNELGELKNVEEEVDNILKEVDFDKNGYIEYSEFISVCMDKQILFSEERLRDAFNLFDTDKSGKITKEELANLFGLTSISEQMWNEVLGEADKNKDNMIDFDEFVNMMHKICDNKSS
# test: PfCDPK1 kinase inhibitors, biochemical, TCAMS library (AID 1159585);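 note: inhibitors leave more ATP so luminescence rises with inhibition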
# cond: recombinant PfCDPK1, Kinase-Glo ATP depletion luminescence
Results with a measured potency or affinity are listed apart. The source made the active and inactive calls. No cut-off is given here; in the data, nearly all actives have IC50 up to about 0.98 µM.
measure: outcome

# compound, assay.result
data = [
    ("CC(=O)c1ccc(-c2cccc3c(CC(=O)Nc4ccc5nccc(N6CCN(C)CC6)c5c4)cccc23)cc1", "inactive"),
    ("COc1cc(CNCCCNc2cc(=O)c3ccccc3[nH]2)c2c(c1)C(C)CN2C(=O)OC(C)(C)C (stereo not given)", "inactive"),
    ("CCc1ccc(NC(=O)c2cccc(CN3CCCN(Cc4ccc(OC)cc4)CC3)c2)cc1", "inactive"),
    ("CN(C)c1ccc2c(c1)Sc1cc(N(C)C)ccc1N2C(=O)c1cccc(C(=O)O)c1", "inactive"),
    ("Cc1cccc2[nH]c(-c3cccc(-c4cccc(CNCc5cccc(N)c5)c4)c3)nc12", "inactive"),
]

---

# test: antimalarial activity against Dd2 strain (AID 2302);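 note: 0% = DMSO untreated growth and 100% = chloroquine plus artemisinin killed control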
# cond: P. falciparum Dd2 in RBCs, LDH growth readout, 72 h; at 2 µM; stronger effect = higher value
Response key: fulfilled means growth inhibition >= 90%; not fulfilled means growth inhibition < 90%.

# compound, label.value
records = [
    ("CCC(=O)Nc1ccc(C(O)CN2CCC3(C=Cc4ccccc4O3)CC2)cc1 (stereo not given)", "not fulfilled"),
    ("Cc1ccc(F)c(OCC2CCCN(c3ccc(C(=O)NC4CC4)cn3)C2)c1 (stereo not given)", "fulfilled"),
    ("CCOc1ccc(-c2nonc2NC(=O)c2ccccc2F)cc1OCC", "fulfilled"),
    ("CC(C)(C)CCN1CCC(CNC(=O)c2cc(-c3cccc(Cl)c3)cs2)C1 (stereo not given)", "not fulfilled"),
]

---

# test: inhibition of 3D7 malaria parasite growth – strain 3D7 (AID 2306);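 note: 0% = DMSO wells and 100% = chloroquine plus artemisinin control wells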
# cond: P. falciparum 3D7 erythrocytic growth, LDH absorbance, 72 h; at 2 µM; stronger effect = higher value
Each record here notes measured growth inhibition.
measure: growth inhibition (%)

# molecule, assay.result
rows = [
    ("O=C1CCCN1CCCNCc1cccc(-c2cccc(-c3nc4ccc(C(F)(F)F)cc4[nH]3)c2)c1", 101),
    ("NC(=O)c1cccc(C(=O)Nc2cccc(-c3ccc(-c4nc5ccc(C(F)(F)F)cc5[nH]4)cc3)c2)c1", 100),
    ("Cc1c(C)n(C2CCCC2)c2ncnc(OC3CCN(CC(=O)NC4CC4)CC3)c12", 95),
    ("Cc1cccc2[nH]cc(C3CCN(CCC4CCN(C(=O)/C=C/c5ccc(Cl)c(Cl)c5)CC4)CC3)c12", 91),
    ("CCc1cc2c(=O)c(-c3nc(C)cs3)c(N)oc2c(CN2CCCCC2)c1O", 99),
    ("COC(=O)c1cccc(CNCc2ccc(-c3ccc(-c4nc5ccc(F)cc5[nH]4)s3)cc2)c1", 101),
    ("Cc1cccc2[nH]c(-c3cccc(-c4cccc(CNCc5cccc(N)c5)c4)c3)nc12", 101),
    ("COc1ccc(C2CCN(CCCCNC(=O)c3ccc(NC(=O)c4ccc(Cl)cc4)cc3)CC2)cc1Cl", 97),
    ("CCN(CCCN1CCCCC1)c1cc(C)nc(Nc2cc(Cl)ccc2C)n1", 99),
    ("Brc1ccc(Nc2ccnc3cc(-c4nccs4)ccc23)cc1Oc1ccnc2cc(-c3nccs3)ccc12", 91),
    ("CC(=O)c1c(CC(=O)O)c2ccccc2n1O", 98),
    ("COc1ccc2c(c1)[nH]c1c(/C=C/c3ccc([N+](=O)[O-])cc3)nccc12", 100),
    ("CCN(CC)CCNC(=O)c1ccc(NC(=O)c2oc3c(Cl)cccc3c2C)cc1", 98),
    ("COc1ccc2nccc([C@@H](O)CN3CCC(NC(=O)c4ccc(Cl)c([N+](=O)[O-])c4)CC3)c2c1", 88),
    ("Cc1ccc(S(=O)(=O)N(CCCN2CCN(C)CC2)Cc2csc(-c3ccc(CNCc4ccccc4)cc3)n2)cc1", 97),
    ("O=C(Nc1cccc(CN2CCN(Cc3ccc(O)cc3)CC2)c1)c1cc2ccccc2s1", 100),
    ("Cn1cc(CN2CCCC(COC(c3ccc(F)cc3)c3ccc(F)cc3)C2)cn1 (centres undefined)", 98),
    ("O=C(Nc1ccc(-c2cccc(-c3nc4ccc(C(F)(F)F)cc4[nH]3)c2)cc1)Nc1ccc(Cl)c(Cl)c1", 98),
    ("COc1ccc(Nc2nccc(-c3c(-c4cccc(NC(=O)c5c(F)cccc5F)c4)nn4ccccc34)n2)cc1Cl", 95),
]

---

# test: antimalarial activity against Dd2 strain (AID 2302);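 note: 0% = DMSO untreated growth and 100% = chloroquine plus artemisinin killed control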
# cond: P. falciparum Dd2 in RBCs, LDH growth readout, 72 h; at 2 µM; stronger effect = higher value
Activity calls are given as the source filed them.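 How the source made its calls: active means growth inhibition above 50% at the single 2 µM test dose, taken to imply half-maximal potency below 2 µM; inactive means the rest.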

# smiles.entry, growth inhibition
data = [
    ("COCc1nc(-c2ccccc2)nc(N2CCN(C(=O)NC(C)C)CC2)c1Cc1ccccc1F", "94% (active)"),
    ("CCCN(C(=O)c1ccccc1C)c1nnc(-c2cccc(C)c2)s1", "67% (active)"),
    ("Clc1cc(Nc2ccnc3ccc(Br)cc23)ccc1Oc1ccc(Cl)c2ccccc12", "86% (active)"),
    ("CCn1ccc2c(N3CCCC3=O)cc(C(=O)N[C@@H](Cc3ccccc3)[C@H](O)CNCc3cccc(OC)c3)cc21", "92% (active)"),
    ("COc1ccc(Nc2nccc(NCCNC(=O)Nc3cc(C)ccc3C)n2)cc1", "-3% (inactive)"),
]

---

Each record here notes measured inhibition.
# study.system: L-lactate dehydrogenase (Plasmodium falciparum (isolate CDC / Honduras))
# test: PfLDH activity inhibition – cell lysate, 3D7 strain, counter-screen for P. falciparum growth inhibition project (AID 2304);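 note: 0% = vehicle and 100% = reference inhibitor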
# cond: P. falciparum 3D7 crude extract, LDH APAD/NBT absorbance; at 2 µM; stronger effect = higher value

# compound, study.system, inhibition [%]
rows = [
    ("CC(C)CCN1CCCN(Cc2cccc(C(=O)Nc3ccc(C(C)(C)C)cc3)c2)CC1", "L-lactate dehydrogenase (Plasmodium falciparum (isolate CDC / Honduras))", -5),
    ("COC(=O)C1(NC(=O)c2ccc(-n3nc(C)c(-c4ccccc4)c3N)cc2)CCCC1", "L-lactate dehydrogenase (Plasmodium falciparum (isolate CDC / Honduras))", -5),
    ("CCc1cc2c(=O)c(-c3nc(C)cs3)c(N)oc2c(CN2CCCCC2)c1O", "L-lactate dehydrogenase (Plasmodium falciparum (isolate CDC / Honduras))", 0),
    ("CC(C)(C)c1ccc(NC(=O)c2ccc(CN3CCCN(Cc4cccc(C#N)c4)CC3)cc2)cc1", "L-lactate dehydrogenase (Plasmodium falciparum (isolate CDC / Honduras))", -5),
    ("CCn1cc(C=C2Oc3c(ccc(O)c3CN3CCCCC3)C2=O)c2ccccc21", "L-lactate dehydrogenase (Plasmodium falciparum (isolate CDC / Honduras))", -3),
    ("Cc1cccc2[nH]c(-c3cccc(-c4ccc(C(=O)NCc5ccccc5S(C)(=O)=O)cc4)c3)nc12", "L-lactate dehydrogenase (Plasmodium falciparum (isolate CDC / Honduras))", 1),
    ("COc1ccc(Oc2ccccc2CNCC2CCN(CC3CCCCC3)CC2)cc1", "L-lactate dehydrogenase (Plasmodium falciparum (isolate CDC / Honduras))", -8),
    ("Cc1cc(N[C@@H](Cc2ccccc2)C(=O)Nc2ccccc2)nc(NCCc2ccccc2)n1", "L-lactate dehydrogenase (Plasmodium falciparum (isolate CDC / Honduras))", 3),
    ("O=C(NCC1CCN(C/C=C/c2ccccc2)CC1)Nc1ccc(Oc2ccccc2)cc1", "L-lactate dehydrogenase (Plasmodium falciparum (isolate CDC / Honduras))", -3),
    ("CCN(CC)CCCC(C)Nc1ccnc2ccc(-c3ccccc3)cc12 (stereo not given)", "L-lactate dehydrogenase (Plasmodium falciparum (isolate CDC / Honduras))", 2),
    ("Cc1cccc2[nH]c(-c3ccc(-c4ccc(CN5CCC(N)C5)cc4)s3)nc12 (stereo not given)", "L-lactate dehydrogenase (Plasmodium falciparum (isolate CDC / Honduras))", -11),
    ("COc1ccc2cc(C=NNc3nc4ccccc4[nH]3)c(Cl)nc2c1", "L-lactate dehydrogenase (Plasmodium falciparum (isolate CDC / Honduras))", -2),
    ("O=C(Nc1ccc(Cl)cc1)c1ccc(S(=O)(=O)NCC2CCN(CC3CCCCC3)CC2)cc1", "L-lactate dehydrogenase (Plasmodium falciparum (isolate CDC / Honduras))", -2),
    ("O=C(Nc1cccc(-c2nc3ccccc3[nH]2)c1)c1ccc(-c2cccc([N+](=O)[O-])c2)o1", "L-lactate dehydrogenase (Plasmodium falciparum (isolate CDC / Honduras))", -1),
    ("CCC(C)(C)C1CCc2[nH]c3ccccc3c(=O)c2C1 (stereo not given)", "L-lactate dehydrogenase (Plasmodium falciparum (isolate CDC / Honduras))", -4),
    ("O=C(NC1CCN(CC2(c3ccccc3F)CCCC2)CC1)c1ccn[nH]1", "L-lactate dehydrogenase (Plasmodium falciparum (isolate CDC / Honduras))", -1),
    ("NS(=O)(=O)c1cncc(-c2ccc3nccc(-c4cn[nH]c4)c3n2)c1", "L-lactate dehydrogenase (Plasmodium falciparum (isolate CDC / Honduras))", -2),
    ("Cc1nc(-c2nc(NCc3ccncc3)ncc2-c2ccsc2)sc1C", "L-lactate dehydrogenase (Plasmodium falciparum (isolate CDC / Honduras))", 2),
    ("Cc1nnsc1C(=O)Nc1cccc(-c2csc(-c3nc4ccccc4[nH]3)c2)c1", "L-lactate dehydrogenase (Plasmodium falciparum (isolate CDC / Honduras))", 8),
    ("Cc1cc(N2CCCC2)nc(Nc2ccc(NC(=O)c3ccccc3C)cc2)n1", "L-lactate dehydrogenase (Plasmodium falciparum (isolate CDC / Honduras))", 2),
    ("C=CCc1cc(Br)ccc1OCCCOc1c(C)nc(N)nc1N", "L-lactate dehydrogenase (Plasmodium falciparum (isolate CDC / Honduras))", -3),
    ("COCCN1CCC(CN(C)CC(C)(C)c2nc(-c3ccc(Cl)c(O)c3)c(-c3ccncc3)[nH]2)CC1", "L-lactate dehydrogenase (Plasmodium falciparum (isolate CDC / Honduras))", -2),
    ("CC(C)Cn1c2ccccc2c2nc3nc(N)nc(N)c3nc21", "L-lactate dehydrogenase (Plasmodium falciparum (isolate CDC / Honduras))", -3),
    ("Cc1ccccc1-c1nc2c(CN3CCC(O)(c4ccccc4)CC3)c(O)ccc2[nH]1", "L-lactate dehydrogenase (Plasmodium falciparum (isolate CDC / Honduras))", 4),
    ("Cc1ccc(O)c(-c2cc(C(=O)Nc3ccc(S(=O)(=O)N4CCCCCC4)cc3)[nH]n2)c1", "L-lactate dehydrogenase (Plasmodium falciparum (isolate CDC / Honduras))", 4),
    ("COc1ccc2c(c1)c(C1CCN(CCCCNC(=O)c3ccc(-c4ccc(C(F)(F)F)cc4)cc3)CC1)cn2C(C)C", "L-lactate dehydrogenase (Plasmodium falciparum (isolate CDC / Honduras))", 0),
    ("Cc1[nH]c(C)c(-c2ccc(-c3ccccc3Cl)nc2)c(=O)c1Cl", "L-lactate dehydrogenase (Plasmodium falciparum (isolate CDC / Honduras))", -5),
    ("CCCNC(=O)CN1CN(c2ccccc2)C2(CCN(C(=O)c3ccc(C(C)(C)C)cc3)CC2)C1=O", "L-lactate dehydrogenase (Plasmodium falciparum (isolate CDC / Honduras))", 0),
    ("Cc1ccc2nc(C)cc(NN=Cc3ccc([N+](=O)[O-])o3)c2c1", "L-lactate dehydrogenase (Plasmodium falciparum (isolate CDC / Honduras))", -4),
    ("CS(=O)(=O)c1ccc2nc(-c3cc(-c4ccc(OCCN5CCOCC5)cc4)cnc3N)[nH]c2c1", "L-lactate dehydrogenase (Plasmodium falciparum (isolate CDC / Honduras))", -4),
    ("CC(C)CN1CCCN(Cc2cccc(NC(=O)c3ccc(-c4ccccc4)cc3)c2)CC1", "L-lactate dehydrogenase (Plasmodium falciparum (isolate CDC / Honduras))", 1),
    ("NC1CCCN(Cc2cccc(-c3ccc(-c4nc5ccccc5[nH]4)s3)c2)C1 (stereo not given)", "L-lactate dehydrogenase (Plasmodium falciparum (isolate CDC / Honduras))", -2),
    ("COc1ccc(C(=O)CCC(=O)N(Cc2ccc(-c3ccc(CNCc4cccnc4)cn3)cc2)C2CCN(Cc3ccccc3)CC2)cc1F", "L-lactate dehydrogenase (Plasmodium falciparum (isolate CDC / Honduras))", 3),
    ("CN1CCC(NCc2ccc(-c3ccc(C(F)(F)F)cc3)cc2)CC1", "L-lactate dehydrogenase (Plasmodium falciparum (isolate CDC / Honduras))", 5),
    ("CCc1ccc2c(c1O)CCN(C)C2Cc1ccccc1Cl (stereo not given)", "L-lactate dehydrogenase (Plasmodium falciparum (isolate CDC / Honduras))", -3),
    ("CC1(C)N=C(N)N=C(N)N1OCCCNC(=O)c1ccc(C(=O)NCCCON2C(N)=NC(N)=NC2(C)C)cc1", "L-lactate dehydrogenase (Plasmodium falciparum (isolate CDC / Honduras))", 3),
    ("CN(Cc1ccccc1)C1CCN(c2cc(NC(=O)c3cccc(F)c3)ccn2)CC1", "L-lactate dehydrogenase (Plasmodium falciparum (isolate CDC / Honduras))", -2),
    ("CCCCCCN1CCCN(Cc2ccc(C(=O)Nc3ccc(Cl)cc3)cc2)CC1", "L-lactate dehydrogenase (Plasmodium falciparum (isolate CDC / Honduras))", 3),
    ("O=C(C=Cc1ccc(Cl)c(Cl)c1)NC1CCN(CCc2ccccc2)CC1", "L-lactate dehydrogenase (Plasmodium falciparum (isolate CDC / Honduras))", -8),
    ("CCOc1ccc(-c2nc(NC(=O)COc3ccc(OC)cc3)sc2C)cc1", "L-lactate dehydrogenase (Plasmodium falciparum (isolate CDC / Honduras))", -9),
]
